Listing of entries alongside the reported melting point.

May I ask what melting point has been recorded for O=C1[C@H]2CCC[C@H]2Nc2ccccc2N1Cc1cccc([N+](=O)[O-])c1 (relative stereo) ?
169 to 171 °C

Further, for "CC(C)N1CCC(=C2c3ccn(C)c3CCn3ccnc32)CC1" ?
178 °C

Further, for "CN1C(=S)N(c2ccc(C#N)c(C(F)(F)F)c2)C(=N)C1(C)C" ?
173 to 174 °C

Further, for CN(C)C(=O)C1Oc2ccc([N+](=O)[O-])cc2O1 (configuration not stated) ?
109 °C

Further, for "CCc1ccc(Cc2c(OC)cccc2OC)cc1" ?
62.5 to 66.5 °C

Further, for "CCCCN(Cc1ccc(-c2ccccc2-c2nnn[nH]2)cc1)c1ncn(C)c1C(=O)OCC" ?
203 to 204 °C

Further, for "COC(=O)c1ccc(C=CC(=O)C=Cc2ccc(C(=O)OC)cc2)cc1" ?
206 to 210 °C

Further, for "COC(=O)C=C1NCCOC1=O" ?
76 to 79 °C

Further, for O=S(=O)(c1cccc(-c2cc(-c3nc(-c4ccc(C(F)(F)F)cc4)cc(C(F)(F)F)n3)ccn2)c1)N1CCC(O)C1 (racemic) ?
234 °C
